Hey, just so you know, these numbers are from ChEMBL document CHEMBL1155276.

System: Listeria monocytogenes
Assay info: Antilysterial activity against leucocin A-sensitive Listeria monocytogenes B73 assessed as bacterial lysis half life at 10 uM by broth microdilution assay
Assay type: functional, organism-based
Non-standard residues stand in square brackets, D forms with d. Residues, ends and D or L forms follow the SMILES beside them. Orn = NCCC[C@H](N)C(=O)O
Measured metric: T1/2 (min)
Output spec: scalar in min, unitless text.

CC(C)C[C@@H]1NC(=O)[C@H](CCCCN)NC(=O)[C@H](C(C)C)NC(=O)[C@H](Cc2ccc(O)cc2)NC(=O)[C@H](CCC(N)=O)NC(=O)[C@H](CC(N)=O)NC(=O)[C@@H](Cc2ccccc2)NC(=O)[C@H](Cc2ccccc2)NC(=O)[C@@H]2CCCN2C(=O)[C@@H](Cc2ccccc2)NC1=O [TYROCIDINE A1] = 32.2
CC(C)C[C@@H]1NC(=O)[C@H](CCCN)NC(=O)[C@H](C(C)C)NC(=O)[C@@H]2CCCN2C(=O)[C@@H](Cc2ccccc2)NC(=O)[C@H](CC(C)C)NC(=O)[C@H](CCCN)NC(=O)[C@H](C(C)C)NC(=O)[C@@H]2CCCN2C(=O)[C@@H](Cc2ccccc2)NC1=O [GRAMICIDIN S] (cyclo(L[dF]PV[Orn]L[dF]PV[Orn])) = 38.5
CC(C)C[C@@H]1NC(=O)[C@H](CCCCN)NC(=O)[C@H](C(C)C)NC(=O)[C@H](Cc2ccc(O)cc2)NC(=O)[C@H](CCC(N)=O)NC(=O)[C@H](CC(N)=O)NC(=O)[C@@H](Cc2c[nH]c3ccccc23)NC(=O)[C@H](Cc2c[nH]c3ccccc23)NC(=O)[C@@H]2CCCN2C(=O)[C@@H](Cc2ccccc2)NC1=O [TYROCIDINE C1] = 27.5
CC(C)C[C@@H]1NC(=O)[C@H](CCCCN)NC(=O)[C@H](C(C)C)NC(=O)[C@H](Cc2ccc(O)cc2)NC(=O)[C@H](CCC(N)=O)NC(=O)[C@H](CC(N)=O)NC(=O)[C@@H](Cc2ccccc2)NC(=O)[C@H](Cc2c[nH]c3ccccc23)NC(=O)[C@@H]2CCCN2C(=O)[C@@H](Cc2ccccc2)NC1=O [TYROCIDINE B1] = 29.6
CC(C)C[C@@H]1NC(=O)[C@H](CCCN)NC(=O)[C@H](C(C)C)NC(=O)[C@H](Cc2ccc(O)cc2)NC(=O)[C@H](CCC(N)=O)NC(=O)[C@H](CC(N)=O)NC(=O)[C@@H](Cc2c[nH]c3ccccc23)NC(=O)[C@H](Cc2c[nH]c3ccccc23)NC(=O)[C@@H]2CCCN2C(=O)[C@@H](Cc2ccccc2)NC1=O [TYROCIDINE C] = 31.2

Qu. Fill in the blank: the reported T1/2 of CC(C)C[C@@H]1NC(=O)[C@H](CCCN)NC(=O)[C@H](C(C)C)NC(=O)[C@H](Cc2ccc(O)cc2)NC(=O)[C@H](CCC(N)=O)NC(=O)[C@H](CC(N)=O)NC(=O)[C@@H](Cc2ccccc2)NC(=O)[C@H](Cc2ccccc2)NC(=O)[C@@H]2CCCN2C(=O)[C@@H](Cc2ccccc2)NC1=O [TYROCIDINE A] (cyclo(F[dF]NQYV[Orn]L[dF]P)) is ____.
Ans. 32.3

Qu. And what about the molecule CC(C)C[C@@H]1NC(=O)[C@H](CCCN)NC(=O)[C@H](C(C)C)NC(=O)[C@H](Cc2ccc(O)cc2)NC(=O)[C@H](CCC(N)=O)NC(=O)[C@H](CC(N)=O)NC(=O)[C@@H](Cc2ccccc2)NC(=O)[C@H](Cc2c[nH]c3ccccc23)NC(=O)[C@@H]2CCCN2C(=O)[C@@H](Cc2ccccc2)NC1=O [TYROCIDINE B] ?
Ans. 28.8
